Hi there, I'd appreciate the recorded Plant response rating, Cocklebur for every entry that follows.
# Tested on: cocklebur
# ASSAY_REMARKS: Test B pre/postemergence cocklebur
# Assay type: in vivo, Xanthium strumarium
# CONDITION_PARAMETERS: Preemergence, Rate 125 g/ha; scale of 0 to 10 where 0 is no effect and 10 is complete control
One number for each entry.

[[record]]
compound = "CC(=O)NCn1c(=O)on(C(=O)N(c2ccc(F)cc2)C(C)C)c1=O"
recorded_measurement = 0

[[record]]
compound = "CC(C)N(C(=O)n1oc(=O)n(CC(=O)N(C)C)c1=O)c1ccc(Cl)cc1"
recorded_measurement = 0

[[record]]
compound = "CC(C)N(C(=O)n1oc(=O)n(CCCl)c1=O)c1ccccc1"
recorded_measurement = 0


State the recorded Plant response rating, Cocklebur for every item in the following list.
1. CC(C)N(C(=O)n1oc(=O)n(C(C)C(=O)N(C)C)c1=O)c1ccccc1 (stereo not drawn)
2. CC(C)N(C(=O)n1oc(=O)n(CCCCl)c1=O)c1ccc(Cl)cc1
3. CC(C)N(C(=O)n1oc(=O)n(C(C)C(=S)N(C)C)c1=O)c1ccccc1 (stereo not drawn)
4. CC(C)N(C(=O)n1oc(=O)n(C[C@H](C)Cl)c1=O)c1ccc(Cl)cc1
5. CC(C)N(C(=O)n1oc(=O)n(CCBr)c1=O)c1ccccc1
6. CC(C)N(C(=O)n1oc(=O)n(C(C)Cl)c1=O)c1ccccc1 (stereo not drawn)

Response line:
0
0
0
0
0
0

====

# Tested on: surinam grass
# ASSAY_REMARKS: Test B pre/postemergence surinam grass
# Assay type: in vivo, Brachiaria decumbens
# CONDITION_PARAMETERS: Postemergence, Rate 250 g/ha; scale of 0 to 10, 0 is no effect, 10 is complete control
Hi there, I'd appreciate the recorded B. signalgrass plant response rating for every entry that follows.
Answers are plain numbers.

[[record]]
compound = "CCOP(=O)(Cn1c(=O)on(C(=O)N(c2ccc(Cl)cc2)C(C)C)c1=O)OCC"
readout = "B. signalgrass plant response rating"
recorded_measurement = 0

[[record]]
compound = "COCCn1c(=O)on(C(=O)N(c2ccc(F)cc2)C(C)C)c1=O"
readout = "B. signalgrass plant response rating"
recorded_measurement = 7

[[record]]
compound = "C#CC(C)n1c(=O)on(C(=O)N(c2ccc(Cl)cc2)C(C)C)c1=O (racemic)"
readout = "B. signalgrass plant response rating"
recorded_measurement = 0

[[record]]
compound = "COCCn1c(=O)on(C(=O)N(c2ccc(F)cc2F)C(C)C)c1=O"
readout = "B. signalgrass plant response rating"
recorded_measurement = 8

[[record]]
compound = "CC(C)N(C(=O)n1oc(=O)n(CCCC(F)(F)F)c1=O)c1ccccc1"
readout = "B. signalgrass plant response rating"
recorded_measurement = 0


State the recorded B. signalgrass plant response rating for every item in the following list.
1. CC(C)N(C(=O)n1oc(=O)n(CC(=O)N(C)C)c1=O)c1ccccc1
2. CC(C)N(C(=O)n1oc(=O)n(CC[N+](=O)[O-])c1=O)c1ccc(F)cc1F
3. CCC(C)n1c(=O)on(C(=O)N(c2ccccc2)C(C)C)c1=O (stereo not shown)
4. C=C(Cn1c(=O)on(C(=O)N(c2ccccc2)C(C)C)c1=O)c1cccc(Cl)n1

Response line:
1. 4
2. 0
3. 7
4. 0

Prompt line: Note B. signalgrass plant response rating for the compound shown: CC(C)N(C(=O)n1oc(=O)n(CSC#N)c1=O)c1ccc(F)cc1
Response line: 0

====

Hi there, I'd appreciate the recorded Ducksalad plant response rating for every entry that follows.
# Test system: duck salad
# ASSAY_REMARKS: Test B flood test duck salad
# Format: in vivo, Heteranthera limosa
# CONDITION_PARAMETERS: Rate 62 g/ha, headed Pre-emergence (flood test species); scale 0 to 10 (0 no effect, 10 complete control)
Give bare numbers.

State the recorded Ducksalad plant response rating for every item in the following list.
1. Cc1c(-n2c(=O)on(C(=O)N(c3ccc(Cl)cc3)C(C)C)c2=O)ccc2ccccc12
2. CC(C)N(C(=O)n1oc(=O)n(C(C)C)c1=O)c1cnccn1
3. CC(=O)Cn1c(=O)on(C(=O)N(c2ccc(F)cc2)C(C)C)c1=O
4. CC(C)N(C(=O)n1oc(=O)n(CCC2OCCCO2)c1=O)c1ccc(F)cc1
5. C=CCn1c(=O)on(C(=O)N(c2ccc(Cl)cc2)C(C)C2CC2)c1=O (stereo not shown)
6. C#CCn1c(=O)on(C(=O)N(c2ccc(F)cc2)C(C)C)c1=O
7. CC(C)N(C(=O)n1oc(=O)n(C(C)C)c1=O)c1ccc(F)cc1
8. CSc1ccc(N(C(=O)n2oc(=O)n(-c3ccccc3C)c2=O)C(C)C)cc1

Response line:
[0, 0, 0, 0, 0, 0, 0, 0]

State the recorded Ducksalad plant response rating for every item in the following list.
1. CC(C)N(C(=O)n1oc(=O)n(-c2ccc3ccccc3c2)c1=O)c1ccc(F)cc1
2. Cc1ccccc1-n1c(=O)on(C(=O)N(c2ccc(OC(F)(F)F)cc2)C(C)C)c1=O

Response line:
[0, 0]

====

# Tested on: smallflower flatsedge
# ASSAY_REMARKS: Test B flood test smallflower flatsedge
# Format: in vivo, Cyperus difformis
# CONDITION_PARAMETERS: Rate 500 g/ha, Pre-emergence section of Table B; 0 to 10 scale (0 no effect, 10 complete control)
READOUT: S. Flatsedge plant response rating
One number for each entry.

Some solved cases for reference:
[[record]]
compound = "CC(C)N(C(=O)n1oc(=O)n(CC2CCCCO2)c1=O)c1ccc(Cl)cc1 (stereo not shown)"
recorded_measurement = 0

[[record]]
compound = "CC(C)N(C(=O)n1oc(=O)n(C(CF)CF)c1=O)c1ccc(F)cc1F"
recorded_measurement = 0

[[record]]
compound = "CC(C)N(C(=O)n1oc(=O)n(CC(=O)C2CC2)c1=O)c1ccc(F)cc1F"
recorded_measurement = 0

[[record]]
compound = "CC[C@H](C)n1c(=O)on(C(=O)N(c2ccc(F)cc2F)C(C)C)c1=O"
recorded_measurement = 0

[[record]]
compound = "CC(C)N(C(=O)n1oc(=O)n(C[Si](C)(C)C)c1=O)c1ccccc1"
recorded_measurement = 0


State the recorded S. Flatsedge plant response rating for every item in the following list.
1. CC(C)N(C(=O)n1oc(=O)n(C2CC=CCC2)c1=O)c1ccc(F)cc1 (stereo not shown)
2. C=CCCCn1c(=O)on(C(=O)N(c2ccc(Cl)cc2)C(C)C)c1=O

Response line:
1: 8; 2: 0

====

# System: crabgrass
# ASSAY_REMARKS: Test B pre/postemergence crabgrass
# Format: in vivo, Digitaria sanguinalis
# CONDITION_PARAMETERS: Postemergence, Rate 125 g/ha; scale 0 to 10, 0 is no effect, 10 is complete control
Hi there, I'd appreciate the recorded Plant response rating, Crabgrass for every entry that follows.
Give bare numbers.

[[record]]
query_smiles = "Cc1c(-n2c(=O)on(C(=O)N(c3ccc(Cl)cc3)C(C)C)c2=O)ccc2ccccc12"
recorded_measurement = 0

[[record]]
query_smiles = "Cc1nnsc1Cn1c(=O)on(C(=O)N(c2ccc(F)cc2)C(C)C)c1=O"
recorded_measurement = 1

[[record]]
query_smiles = "CC(C)N(C(=O)n1oc(=O)n(CCBr)c1=O)c1ccccc1"
recorded_measurement = 1


State the recorded Plant response rating, Crabgrass for every item in the following list.
1. CCCCCCn1c(=O)on(C(=O)N(c2ccc(F)cc2)C(C)C)c1=O
2. CCC(CC)n1c(=O)on(C(=O)N(c2ccccc2)C(C)C)c1=O

Response line:
1: 3; 2: 2

====

Hi there, I'd appreciate the recorded Crabgrass plant response rating for every entry that follows.
# Test system: crabgrass
# ASSAY_REMARKS: Test B pre/postemergence crabgrass
# Assay type: in vivo, Digitaria sanguinalis
# CONDITION_PARAMETERS: Rate 125 g/ha; Postemergence; scale 0 to 10, 0 no effect, 10 complete control
# Protocol: […] At the same time, these crop and weed species were also treated with postemergence applications of test chemicals formulated in the same manner. […] Treated plants and controls were maintained in a greenhouse for twelve to sixteen days, after which all species were compared to controls and visually evaluated. […]

Some solved cases for reference:
[[record]]
molecule = "Cc1cccc(Cl)c1-n1c(=O)on(C(=O)N(c2ccc(Cl)cc2)C(C)C)c1=O [Compound 54]"
recorded_measurement = 0

[[record]]
molecule = "CCc1cccc(C)c1-n1c(=O)on(C(=O)N(c2ccc(F)cc2)C(C)C)c1=O [Compound 52]"
recorded_measurement = 1

[[record]]
molecule = "Cc1cc(C)c(-n2c(=O)on(C(=O)N(c3ccc(F)cc3)C(C)C)c2=O)c(C)c1 [Compound 60]"
recorded_measurement = 0


Prompt line: Note Crabgrass plant response rating for the molecule shown: COc1cccc(C)c1-n1c(=O)on(C(=O)N(c2ccc(F)cc2F)C(C)C)c1=O [Compound 74]
Response line: 2
